# Tested on: Vero E6
# TEST METHOD NOTES: cell viability relative to DMSO; higher = less toxic
# SETTINGS: 72 h; 1 nM
Reported cell viability by item:
Could you give me the number in %? Just the number is fine.

In the examples that follow, each entry is paired with its recorded cell viability.
COMPOUND | TARGET UNDER TEST | SCALE UNIT | cell viability
CO/N=C(\C(=O)N[C@@H]1C(=O)N2C(C(=O)[O-])=C(C[n+]3ccn4ncccc43)CS[C@H]12)c1nsc(N)n1 [cefozopran] | Vero E6 | % | 92.7
NC1=N[C@@](c2cccc(-c3cncnc3)c2)(c2ccnc(C(F)F)c2)c2cccc(F)c21 [AZD3839] | Vero E6 | % | 110

Log: Vero E6, compound CC(C[N+](C)(C)C)OC(N)=O (centres undefined) [bethanechol] , cell viability = 99.3

Result for CCOC(=O)c1ncn2c1[C@@H]1CCCN1C(=O)c1cc(OC)ccc1-2 [L-655,708] , tested on Vero E6, cell viability: 94.6

----------
Entries and their cell viability
# Test system: Vero E6
# TEST METHOD NOTES: cell viability relative to DMSO; higher = less toxic
# SETTINGS: 72 h; 1 nM
I only need the number, in %, no unit after it.

Observe how each entry below is paired with its result.
COMPOUND | cell viability (%)
C[C@H](NC[C@H](O)CP(=O)(O)Cc1ccccc1)c1ccc(Cl)c(Cl)c1 | 99.4
O=C1NC(=O)c2cc(Nc3ccc(F)cc3)c(Nc3ccc(F)cc3)cc21 | 96.9
C[C@@H]1CCC[C@H](C)N1NC(=O)c1ccc(Cl)c(S(N)(=O)=O)c1 [clopamide] | 99.4

Record C[C@@H](NC(=O)CCc1nc2ccccc2c(=O)[nH]1)c1ccccc1 [ME0328] . Reported cell viability: 93.6

----------
# Tested on: Calu-3
# TEST METHOD NOTES: cell viability relative to DMSO; higher = less toxic
# SETTINGS: 72 h; 1 nM
Attribute: cell viability
API: value field is a number in %; no unit string.

A selection of reference data follows.
COMPOUND | TARGET UNDER TEST | MEASURED PROPERTY | READOUT VALUE
COc1cccc(OC)c1C(=O)N[C@@H]1C(=O)N2[C@@H]1SC(C)(C)[C@@H]2C(=O)O | Calu-3 | cell viability | 105
Cc1cc(NC(=O)C2=C(O)c3ccccc3S(=O)(=O)N2C)no1 | Calu-3 | cell viability | 113
Cc1nccn1CC1CCc2c(c3ccccc3n2C)C1=O (centres undefined) | Calu-3 | cell viability | 84.8

Please examine the following record next.
Log: Calu-3, compound C[C@H]1CN(C[C@H](Cc2ccccc2)C(=O)NCC(=O)O)CC[C@@]1(C)c1cccc(O)c1 , cell viability = 107

----------
# System: Vero E6
# TEST METHOD NOTES: drug sensitivity score (DSS) for viability; higher = more toxic; extreme values may be limits of the assay
# SETTINGS: 72 h
Listing: drug sensitivity score of selected compounds
Quick one: just the number, no unit, thanks!

COMPOUND | MEASURED PROPERTY | READOUT VALUE
O=C(O)/C=C/c1ccc(Cn2ccnc2)cc1 | drug sensitivity score | 0

Recorded result, Cc1ccc(C(=O)N(CCCN)[C@@H](c2nc3cc(Cl)ccc3c(=O)n2Cc2ccccc2)C(C)C)cc1 , drug sensitivity score: 19.5

Per the record, Cc1ccc(-c2n[nH]c3c2C(c2cccc(O)c2)N(c2ccc(C(=O)O)cc2)C3=O)cc1 (centres undefined) has drug sensitivity score of 0

Looking up COC(=O)C1=C(C)NC(C)=C(C(=O)OC)C1c1ccccc1[N+](=O)[O-] , I found its drug sensitivity score recorded as 0

----------
# System: Caco-2
# TEST METHOD NOTES: cell viability relative to DMSO; higher = less toxic
# SETTINGS: 72 h; 10 nM
MEASURED PROPERTY: cell viability (%)
Just the number please, in %, no unit attached.

Below are worked cases with known answers.
COMPOUND | READOUT VALUE
CCc1ccc(/C=C/C(=O)Nc2ccc(C(C)=O)cc2)o1 [heclin] | 102
CC(=O)N[C@@H](CC(=O)O)C(=O)N[C@@H](CCC(=O)O)C(=O)O [spaglumic-acid] | 98.1
NCCCCN(Cc1nc2ccccc2[nH]1)[C@H]1CCCc2cccnc21 | 93.3
CC(C)(Sc1cc(C(C)(C)C)c(O)c(C(C)(C)C)c1)Sc1cc(C(C)(C)C)c(O)c(C(C)(C)C)c1 [probucol] | 96.3

cell viability measured on N#Cc1ccc(C(c2ccc(C#N)cc2)n2cncn2)cc1 [letrozole] = 107

----------
# Tested on: HepG2
# TEST METHOD NOTES: cell viability relative to DMSO; higher = less toxic
# SETTINGS: 72 h; 100 nM
Entries whose cell viability is below 90% take Yes; entries at or above 90% take No.

Study these solved cases before continuing.
COMPOUND | QUALITATIVE LABEL
CCOC(=O)c1ncn2c1[C@@H]1CCCN1C(=O)c1cc(OC)ccc1-2 [L-655,708] | No
CCCCN1[C@@H]2CC[C@H]1C[C@@H](OC(c1ccc(F)cc1)c1ccc(F)cc1)C2 [JHW-007] | No
CNC(=O)c1c(F)cccc1Nc1nc(Nc2cc3c(cc2OC)CCN3C(=O)CN(C)C)nc2[nH]ccc12 | Yes

Here is the next item to consider.
### Prompt Answer whether the compound CCOC(=O)Nc1ccc(NCc2ccc(F)cc2)nc1N [flupirtine] has cell viability strictly less than 90%
### Response No

----------
# Test system: Calu-3
# TEST METHOD NOTES: cell viability relative to DMSO; higher = less toxic
# SETTINGS: 72 h; 10000 nM
# maps each entry to its cell viability
Express it in %; write the number only.

MOL | cell viability [%]
Cc1ccc(C(=O)N(CCCN)[C@@H](c2nc3cc(Cl)ccc3c(=O)n2Cc2ccccc2)C(C)C)cc1 | 5.4
C[C@H](C[C@H](N)C(=O)O)C(=O)O | 102
CC(C)(Sc1cc(C(C)(C)C)c(O)c(C(C)(C)C)c1)Sc1cc(C(C)(C)C)c(O)c(C(C)(C)C)c1 | 96
CNCCCN1c2ccccc2CCc2ccccc21 | 96.2
CN[C@@H]1[C@@H](O)[C@@H](O[C@@H]2[C@@H](O)[C@H](O[C@H]3O[C@H](CN)[C@@H](O)[C@H](O)[C@H]3O)[C@@H](N)C[C@H]2NC(=O)[C@@H](O)CN)OC[C@]1(C)O | 99.3

cell viability recorded for this compound, Clc1ccc(-c2nc3sccn3c2/C=N/OCc2ccc(Cl)c(Cl)c2)cc1 , is 92.1

Item: CC(=O)Nc1ccc(CC(=O)O)cc1 | cell viability: 97.8

Form: compound = c1ccc2[nH]c(-c3cscn3)nc2c1 ; cell viability = 110

----------
# System: Caco-2
# TEST METHOD NOTES: cell viability relative to DMSO; higher = less toxic
# SETTINGS: 72 h; 10000 nM
cell viability overview
Return type: number; implicit unit %.

A selection of reference data follows.
COMPOUND | cell viability / %
NCc1ccc(S(N)(=O)=O)cc1 [mafenide] | 98.1
CN1CCN(c2ccc(C(=O)Nc3n[nH]c4ccc(Cc5cc(F)cc(F)c5)cc34)c(NC3CCOCC3)c2)CC1 | 5.3
CSCC1CN(/N=C/c2ccc([N+](=O)[O-])o2)C(=O)O1 (centres undefined) | 89.4
CCn1cc(C(=O)O)c(=O)c2cc3c(cc21)OCO3 | 78.4
CCN1C[C@]2(COC(=O)c3ccccc3N3C(=O)C[C@H](C)C3=O)CC[C@H](OC)[C@@]34[C@@H]5C[C@H]6[C@H](OC)[C@@H]5[C@](O)(C[C@@H]6OC)[C@](O)([C@@H](OC)[C@H]23)[C@@H]14 | 98.1
Cc1ccsc1/C=C/C1=NCCCN1C | 84.2
NC(=O)c1cc([N+](=O)[O-])cc([N+](=O)[O-])c1 [nitromide] | 104
Cc1cccc(Nc2ccccc2C(=O)O)c1C | 99.3

cell viability in this record for NC(=O)Nc1cc(-c2cccc(F)c2)sc1C(=O)N[C@H]1CCCNC1 : 25

----------
# System: U2OS
# TEST METHOD NOTES: relative viability EC50 (midpoint between 100% and the lowest measured viability); higher = less toxic
# SETTINGS: 72 h
Each item that follows carries a reported relative viability EC50.

Answered examples (3):
COMPOUND | relative viability EC50
CC(C)=CCC[C@](C)(O[C@@H]1O[C@H](CO)[C@@H](O)[C@H](O)[C@H]1O)[C@H]1CC[C@]2(C)[C@@H]1[C@H](O)C[C@@H]1[C@@]3(C)CC[C@H](O)C(C)(C)[C@@H]3CC[C@]12C [ginsenoside-C-K] | > 10 µM
C1COC(NC(C2CC2)C2CC2)=N1 [rilmenidine] | > 10 µM
CCc1cc(C(C)=O)c(O)cc1OCCCCCC(C)(C)c1nn[nH]n1 | > 10 µM

// recorded relative viability EC50 for CN(C)CCC(c1ccccc1)c1ccccn1 (centres undefined) [pheniramine] : > 10 µM

// provenance: the supplement of paper PMC13380429
